# experiment: Nephrotoxicity assay: in vitro cytotoxicity of HK-2 cells by CCK-8 assay
# Type: cell-based
# study_conditions: human, HK-2 cells (human renal), 72 h incubation with drug-containing medium
Bridge positions count the residues as written; N and C are the ends. Square brackets hold non-standard residues; d marks the D form. Peptide text beside a SMILES is read from it. * marks the point of attachment. Heptanoyl(6-Me) = CC(C)CCCCC(=O)*; X1 = CC[C@H](C)CCCCC(=O)*; Orn = NCCC[C@H](N)C(=O)O; dDap = NC[C@@H](N)C(=O)O; Dab = NCC[C@H](N)C(=O)O; Dap = NC[C@H](N)C(=O)O
measured_parameter: IC50 at 72 h

CC(C)CCCCC(=O)N[C@@H](CCN)C(=O)N[C@H](C(=O)N[C@H](CO)C(=O)N[C@H]1CCNC(=O)[C@H]([C@@H](C)O)NC(=O)[C@H](CCN)NC(=O)[C@H](CN)NC(=O)[C@H]([C@@H](C)O)NC(=O)[C@@H](Cc2ccccc2)NC(=O)[C@H](CCN)NC1=O)[C@@H](C)O [Compound 72] ({Heptanoyl(6-Me)}-[Dab]T[dS][Dab][Dab][dF]T[Dap][Dab]T; lactam 4-C)    > 500 µg/mL
CC(C)CCCCC(=O)N[C@@H](CCN)C(=O)N[C@H](C(=O)N[C@H](CO)C(=O)N[C@H]1CCNC(=O)[C@H]([C@@H](C)O)NC(=O)[C@H](CCCN)NC(=O)[C@H](CCN)NC(=O)[C@H]([C@@H](C)O)NC(=O)[C@@H](Cc2ccccc2)NC(=O)[C@H](CCN)NC1=O)[C@@H](C)O [Compound 87] ({Heptanoyl(6-Me)}-[Dab]T[dS][Dab][Dab][dF]T[Dab][Orn]T; lactam 4-C)    > 500 µg/mL
CC[C@H](C)CCCCC(=O)N[C@@H](CCN)C(=O)N[C@H](C(=O)N[C@H](CN)C(=O)N[C@H]1CCNC(=O)[C@H]([C@@H](C)O)NC(=O)[C@H](CCN)NC(=O)[C@H](CCN)NC(=O)[C@H]([C@@H](C)O)NC(=O)[C@@H](Cc2ccccc2)NC(=O)[C@H](CCN)NC1=O)[C@@H](C)O [Compound 1] (X1-[Dab]T[dDap][Dab][Dab][dF]T[Dab][Dab]T; lactam 4-C)    > 500 µg/mL
